- testedOn: HLA-A*0101 (Homo sapiens, UniProt P04439, A114D/A174V/A182V/D101N/D185E/E176A/E190D/L180R/Q94H/R68K/S129P/T187R/V100A/V91M/W191G)
- assayProtocol: biochemical
- Assay type: binding
- condition: allele A*0101; cell-free competition, fluorescence polarization at 72 hours; Non-binder = no dose-dependent inhibition; read-out: IC50
pIC50: −log10 of the molar value. Where a SMILES comes first, the peptide text is derived from it.
readoutType: pIC50

[[record]]
compound = "CC[C@H](C)[C@H](NC(=O)[C@H](CC(C)C)NC(=O)[C@H](CO)NC(=O)[C@H](CO)NC(=O)[C@@H](N)[C@@H](C)O)C(=O)N[C@@H](CCCCN)C(=O)N[C@@H](CCC(N)=O)C(=O)N[C@@H](CC(N)=O)C(=O)N[C@@H](CCCCN)C(=O)N[C@@H](Cc1ccc(O)cc1)C(=O)O [EBA175_0114] (H-TSSLIKQNKY-OH)"
recordedresult = 4.43

[[record]]
compound = "CC(C)C[C@H](NC(=O)[C@H](CCCCN)NC(=O)[C@H](CC(=O)O)NC(=O)[C@H](CC(C)C)NC(=O)[C@H](CC(N)=O)NC(=O)[C@H](CC(=O)O)NC(=O)[C@@H](NC(=O)[C@@H](N)C(C)C)[C@@H](C)O)C(=O)N[C@@H](CO)C(=O)N[C@@H](CC(N)=O)C(=O)O [EBA175_1465] (H-VTDNLDKLSN-OH)"
recordedresult = 3.73

[[record]]
compound = "C[C@@H](O)[C@H](NC(=O)[C@@H](N)Cc1ccccc1)C(=O)N[C@@H](Cc1ccc(O)cc1)C(=O)N[C@@H](CC(=O)O)C(=O)N[C@@H](CO)C(=O)N[C@@H](CCC(=O)O)C(=O)N[C@@H](CCC(=O)O)C(=O)N[C@@H](Cc1ccc(O)cc1)C(=O)N[C@@H](Cc1ccc(O)cc1)C(=O)O [EBA175_1392] (H-FTYDSEEYY-OH)"
recordedresult = 6.87

[[record]]
compound = "CC[C@H](C)[C@H](NC(=O)[C@H](CCCNC(=N)N)NC(=O)[C@H](CCC(=O)O)NC(=O)[C@@H](NC(=O)[C@@H](N)[C@@H](C)O)[C@@H](C)O)C(=O)N[C@@H](CO)C(=O)N[C@@H](CC(N)=O)C(=O)N[C@@H](CC(N)=O)C(=O)N[C@@H](CCC(=O)O)C(=O)N[C@@H](Cc1ccc(O)cc1)C(=O)O [EBA175_1084] (H-TTERISNNEY-OH)"
recordedresult = 6.04


* * *

- testedOn: HLA-DRB1*0101 (Homo sapiens, UniProt P01903+P01911, A100R/D57E/F55L/F60I/F76Y/I96L/L162R/M171V/P40L/Q125E/R42F/V115G/Y59C)
- Construct: purchased
- assayProtocol: biochemical
- Type: binding
Where a SMILES comes first, the peptide text is derived from it.
readoutType: IC50

[[record]]
compound = "CC[C@H](C)[C@H](NC(=O)[C@H](CCSC)NC(=O)[C@H](CO)NC(=O)[C@H](C)NC(=O)[C@H](CC(N)=O)NC(=O)[C@H](CCCCN)NC(=O)[C@H](CC(N)=O)NC(=O)[C@H](CCCCN)NC(=O)[C@H](Cc1ccccc1)NC(=O)CNC(=O)[C@H](CCC(=O)O)NC(=O)[C@H](CCCCN)NC(C)=O)C(=O)N[C@@H](CCCCN)C(=O)N[C@@H](CO)C(N)=O [AMA1_006A] (Ac-KEGFKNKNASMIKS-NH2)"
readouttype = "IC50"
recordedresult = "3.94 µM"


* * *

Parameter IC50: see the listing below.
- testedOn: HLA-DRB1*0801 (Homo sapiens, UniProt P01903+P01911, A100R/A103L/A169T/D86S/F76Y/H45Y/I96F/K41T/L162R/M171V/P40S/Q125H/Q178H/Q39Y/Q99D/R218S/R42G/S66Y/V115G/W38E)
- assayProtocol: biochemical
- Format: binding
- condition: binding inhibition assay; NB = non-binder (no dose-dependent inhibition); read-out: DRB1*0801 IC50
Where no end group is shown, it is not given here.
readoutType: IC50 (µM)

[[record]]
substance = "Ac-EYFQTYKKNKPLTQ-NH2 [RH5_013]"
comparisonoperator = "="
recordedresult = 17.8

[[record]]
substance = "Ac-DELLKRILDMSNEYSLFITSD-NH2 [RH5_011]"
comparisonoperator = "="
recordedresult = 95.2

[[record]]
substance = "Ac-DGLKYLFIPSHNSFIKKY-NH2 [RH5_004]"
comparisonoperator = ">"
recordedresult = 100

[[record]]
substance = "TCLINNSSYIATTALSHPIE-NH2 [AMA1_007]"
comparisonoperator = "="
recordedresult = 13.5


* * *

- testedOn: HLA-DRB1*1101 (Homo sapiens, UniProt P01903+P01911, A100R/A169T/A87E/I96F/K41T/L162R/M171V/P40S/Q125H/Q178H/Q39Y/Q99D/R42S/S66Y/T262R/V115G/W38E)
- Sequence (P01903 26-254 limits assumed, other chains not shown): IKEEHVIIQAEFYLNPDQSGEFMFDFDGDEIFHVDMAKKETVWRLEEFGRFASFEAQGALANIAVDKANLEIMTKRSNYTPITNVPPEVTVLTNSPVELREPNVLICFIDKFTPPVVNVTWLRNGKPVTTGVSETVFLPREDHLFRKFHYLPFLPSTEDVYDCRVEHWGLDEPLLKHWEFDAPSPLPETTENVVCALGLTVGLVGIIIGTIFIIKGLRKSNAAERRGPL
- assayProtocol: biochemical
- Format: binding
- condition: binding inhibition assay; NB = non-binder (no dose-dependent inhibition); read-out: DRB1*1101 IC50
pIC50: −log10 of the molar value. Where a SMILES comes first, the peptide text is derived from it.
readoutType: pIC50

[[record]]
compound = "CC(=O)N[C@@H](Cc1ccccc1)C(=O)N[C@@H](CCC(N)=O)C(=O)N[C@@H](CC(N)=O)C(=O)N[C@@H](Cc1ccc(O)cc1)C(=O)N[C@H](C(=O)N[C@@H](Cc1ccc(O)cc1)C(=O)N[C@@H](CC(C)C)C(=O)N[C@@H](CO)C(=O)N[C@@H](CCCCN)C(=O)N[C@@H](CC(N)=O)C(=O)N[C@H](C(=O)N[C@H](C(=O)N[C@@H](CC(=O)O)C(=O)N[C@@H](CC(N)=O)C(=O)N[C@@H](Cc1c[nH]c2ccccc12)C(=O)N[C@@H](CCC(=O)O)C(N)=O)C(C)C)C(C)C)[C@@H](C)O [AMA1_004] (Ac-FQNYTYLSKNVVDNWE-NH2)"
recordedresult = 6.25

[[record]]
compound = "CC[C@H](C)[C@H](NC(=O)[C@H](CS)NC(=O)[C@H](CCC(=O)O)NC(=O)CNC(=O)[C@H](CCCNC(=N)N)NC(=O)[C@H](CO)NC(=O)[C@H](CO)NC(=O)[C@H](CCCNC(=N)N)NC(=O)[C@H](Cc1ccc(O)cc1)NC(=O)[C@H](Cc1ccc(O)cc1)NC(=O)[C@H](Cc1c[nH]cn1)NC(=O)[C@H](CCC(=O)O)NC(=O)[C@H](CCCCN)NC(C)=O)C(=O)N[C@@H](CC(C)C)C(=O)N[C@@H](CC(N)=O)C(=O)N[C@@H](CC(=O)O)C(N)=O [RIPR_017] (Ac-KEHYYRSSRGECILND-NH2)"
recordedresult = 5.86


* * *

- testedOn: HLA-A*2402 (Homo sapiens, UniProt P04439, D101N/D140Y/D185E/E176V/E190D/F33S/G103R/G107R/I119L/I121M/I306V/K335N/L105A/L180Q/L300P/N151K/N90K/Q86E/Q94H/R106L/R138H/R89G/T104I/T345S/V100E/W191G/Y123F)
- assayProtocol: In vitro class I HLA binding assay (fluorescence polarization competition)
- condition: allele A*2402; fluorescence polarization competition; read-out: IC50 (nM), in vitro HLA binding affinity
Where a SMILES comes first, the peptide text is derived from it.
Param label: returns true when IC50 < 400 nM, returns false otherwise, including exact equality.

[[record]]
compound = "CC[C@H](C)[C@H](N)C(=O)N[C@@H](Cc1ccc(O)cc1)C(=O)N[C@@H](CCCCN)C(=O)N[C@@H](CCCNC(=N)N)C(=O)N[C@@H](CCC(=O)O)C(=O)N[C@@H](CC(C)C)C(=O)N[C@@H](Cc1ccc(O)cc1)C(=O)N[C@@H](CC(N)=O)C(=O)N[C@H](C(=O)O)[C@@H](C)CC [CYRPA_055] (H-IYKRELYNI-OH)"
categorylabel = "true"

[[record]]
compound = "CC[C@H](C)[C@H](NC(=O)[C@H](Cc1ccccc1)NC(=O)[C@@H](N)CC(C)C)C(=O)N1CCC[C@H]1C(=O)N[C@@H](CO)C(=O)N[C@@H](Cc1c[nH]cn1)C(=O)N[C@@H](CC(N)=O)C(=O)N[C@@H](CO)C(=O)N[C@@H](Cc1ccccc1)C(=O)O [RH5_098] (H-LFIPSHNSF-OH)"
categorylabel = "true"

[[record]]
compound = "CC[C@H](C)[C@H](NC(=O)[C@H](CCC(=O)O)NC(=O)[C@H](CCC(=O)O)NC(=O)[C@H](CO)NC(=O)[C@@H](NC(=O)[C@H](CC(=O)O)NC(=O)[C@H](Cc1ccc(O)cc1)NC(=O)[C@H](CCCNC(=N)N)NC(=O)[C@H](Cc1ccc(O)cc1)NC(=O)[C@@H](N)CO)[C@@H](C)CC)C(=O)O [RH5_251] (H-SYRYDISEEI-OH)"
categorylabel = "true"

[[record]]
compound = "CC(C)[C@H](NC(=O)[C@H](CCCNC(=N)N)NC(=O)[C@H](Cc1ccc(O)cc1)NC(=O)[C@H](CS)NC(=O)[C@H](CO)NC(=O)[C@@H](NC(=O)[C@H](Cc1ccc(O)cc1)NC(=O)[C@H](C)N)C(C)C)C(=O)N[C@@H](CO)C(=O)N[C@@H](Cc1ccccc1)C(=O)O [RIPR_0412] (H-AYVSCYRVSF-OH)"
categorylabel = "true"

[[record]]
compound = "CC[C@H](C)[C@H](N)C(=O)N[C@@H](Cc1ccccc1)C(=O)N[C@@H](Cc1c[nH]cn1)C(=O)N[C@@H](Cc1c[nH]cn1)C(=O)N[C@@H](CC(C)C)C(=O)N[C@H](C(=O)N[C@@H](Cc1ccc(O)cc1)C(=O)N[C@H](C(=O)N[C@@H](CC(C)C)C(=O)O)C(C)C)[C@@H](C)CC [RH5_493] (H-IFHHLIYVL-OH)"
categorylabel = "false"

[[record]]
compound = "CC[C@H](C)[C@H](NC(=O)[C@H](CS)NC(=O)[C@H](CCC(=O)O)NC(=O)CNC(=O)[C@H](CCCNC(=N)N)NC(=O)[C@H](CO)NC(=O)[C@H](CO)NC(=O)[C@H](CCCNC(=N)N)NC(=O)[C@H](Cc1ccc(O)cc1)NC(=O)[C@@H](N)Cc1ccc(O)cc1)C(=O)O [RIPR_0805] (H-YYRSSRGECI-OH)"
categorylabel = "true"

